# Test system: SK-MEL-5
# assay: NCI tumour cell line growth inhibition, 48 h
Activity calls are given as the source filed them. Cut-off read from the data, not from the text of the source: active = GI50 up to about 1.1 µM and inactive = higher.
Below, each of the compounds is paired with its reported GI50 value.

Recorded GI50, per entry:
compound: Cc1ccc(Cc2c(=O)[nH]nc3ccccc23)cc1
GI50: > 100 µM (inactive)
//
compound: N#C/C(=C\c1ccc[nH]1)C(=O)c1ccccc1
GI50: > 100 µM (inactive)
//
compound: C1=CC2SSSC2C1 (stereo not drawn)
GI50: > 100 µM (inactive)
//
compound: COc1ccc(C2Oc3c(cccc3OC)C=C2[N+](=O)[O-])cc1 (stereo not drawn)
GI50: 1.51 µM (inactive)
//
compound: O=C(/C=N/O)Nc1cc(Cl)c(Cl)cc1Cl
GI50: 17.7 µM (inactive)
//
compound: Cc1cc(O)c2c(c1)C(C1OC(CO)C(O)C(O)C1O)c1cc(O)cc(O)c1C2=O (stereo not drawn)
GI50: > 100 µM (inactive)
//
compound: CNC(=S)/C(C#N)=C(\N)N1CCN(C)CC1
GI50: > 100 µM (inactive)
//
compound: O=C1OC(=O)c2cc(S(=O)(=O)c3ccc4c(c3)C(=O)OC4=O)ccc21
GI50: > 100 µM (inactive)

## Input Please provide the recorded GI50 for O=S(=O)(/N=C(\NO)Nc1ccc(Cl)cc1)c1cccc2nsnc12 , tested on SK-MEL-5.
## Output 14.8 µM (inactive)

## Input Next: Cc1ccc(F)c2[nH]c(-c3ccccc3)cc(=O)c12
## Output 2.75 µM (inactive)

## Input Next: N#CC1(C#N)C(c2ccccc2)C=CC(c2ccc([N+](=O)[O-])cc2)C1(C#N)C#N (stereo not drawn)
## Output 10.7 µM (inactive)

## Input Next: C[C@@H](CCO)OC1OC(COC(=O)C(C)(C)C)C(OC(=O)C(C)(C)C)C(OC(=O)C(C)(C)C)C1OC(=O)C(C)(C)C (stereo partly drawn)
## Output 4.97 µM (inactive)

## Input Next: C=C(C)[C@@H]1CCC2=C[C@@H](OC2=O)[C@@H](C(=C)C)C2=CC(C(=O)O)=C(C1)O2
## Output > 100 µM (inactive)

## Input Next: O=C(Oc1cc(=O)c(OC(=O)c2ccccc2)co1)c1ccccc1
## Output > 100 µM (inactive)

## Input Next: SC1=NC2(CCCCCC2)NN1c1ccccc1
## Output 93.3 µM (inactive)

## Input Next: CCOC(=O)c1cn(CC)c2cc3c(cc2c1=O)CCS3(=O)=O
## Output > 100 µM (inactive)

## Input Next: c1ccc2c(c1)cc1n2CCc2c-1[nH]c1ccccc21
## Output > 10 µM (inactive)

## Input Next: COC(=O)C1CCC(C)CC1=O (stereo not drawn)
## Output > 100 µM (inactive)

## Input Next: Cc1ccc([N+](=O)[O-])cc1S(=O)(=O)Nc1ccc(C2=NOC(c3ccccc3O)C2)cc1 (stereo not drawn)
## Output 4.68 µM (inactive)

## Input Next: O=C(O)C1CC2CC(=O)C1C2 (stereo not drawn)
## Output > 100 µM (inactive)
